- Tested on: MCF7
- experiment.notes: Cytotoxicity against Homo sapiens (human) MCF7 cells assessed as growth inhibition after 48 hr by MTT assay
- Assay type: functional, cell-based
- measurement.context: MCF7, 48 h
pIC50: −log10 of the molar value.
Let's look at some molecules and their measured pIC50.
reported.property: pIC50

> print(dat)
                            chemical.smiles  reported.property  reported.measurement
1  C/C=C(/C)C(=O)O[C@@H]1CC(C)(C)C[C@H]2C3=CC[C@@H]4[C@@]5(C)CC[C@H](O)C(C)(C)[C@@H]5CC[C@@]4(C)[C@]3(C)CC[C@@]12C(=O)O              pIC50                  5.22
2  C/C=C(/C)C(=O)O[C@@H]1CC(C)(C)C[C@H]2C3=CC[C@@H]4[C@@]5(C)CCC(=O)C(C)(C)[C@@H]5CC[C@@]4(C)[C@]3(C)CC[C@@]12C(=O)O              pIC50                  4.59
3  CC(C)=CC(=O)O[C@@H]1CC(C)(C)C[C@H]2C3=CC[C@@H]4[C@@]5(C)CC[C@H](O)C(C)(C)[C@@H]5CC[C@@]4(C)[C@]3(C)CC[C@@]12C(=O)O              pIC50                  5.28
4  CC(C)=CC(=O)O[C@@H]1CC(C)(C)C[C@@H]2C3=CC[C@@H]4[C@@]5(C)CCC(=O)C(C)(C)[C@@H]5CC[C@@]4(C)[C@]3(C)CC[C@]21C(=O)O              pIC50                  4.09
